Property: MIC; scope: individual molecules
Tested on: Staphylococcus epidermidis
ASSAY EXPLANATION: Antibacterial activity against Staphylococcus epidermidis by twofold serial dilution method
Assay type: functional
ENDPOINT NAME: MIC

> print(dat)
                                test.smiles  endpoint.name     result
1  COc1ccc(-n2nc(C)n(CCSc3cccc(OC)c3)c2=O)cc1            MIC  150 µg/mL
2  COc1ccc(-n2nc(C)n(CCSc3ccc(F)cc3)c2=O)cc1            MIC   75 µg/mL
3  COc1ccc(-n2nc(C)n(CCSc3ccc(N)cc3)c2=O)cc1            MIC   75 µg/mL
4  COc1ccc(-n2nc(C)n(CCSc3cccc(F)c3)c2=O)cc1            MIC   75 µg/mL
